- Assayed target: Prostaglandin E2 receptor EP2 subtype (Homo sapiens)
- Assay: compounds shifting PGE2 potency at EP2 – cell-based, human EP2, PGE2 EC50 shift, dose response (AID 1421)
- Condition summary: EP2-expressing cells, PGE2 EC50 shift by compound; at 20 µM
The whole screen tested about 1,300 compounds, of which about 140 (11%) were called active. A selection follows. Entries with a potency or affinity are not part of this list.
Documented PGE2 EC50 with compound across a set of compounds

Solved cases below.
Smiles text	Assayed target	Recorded value
Cc1cnn(-c2nc(-c3ccccc3)cc(-c3ccccc3)n2)c1	Prostaglandin E2 receptor EP2 subtype (Homo sapiens)	0.56 nM (inactive)
c1ccc(Nc2nc(N3CCNCC3)nc(N3CCOCC3)n2)cc1	Prostaglandin E2 receptor EP2 subtype (Homo sapiens)	0.98 nM (inactive)
Cc1ccc(S(=O)(=O)c2ccc(Oc3cccc(C)c3)cc2)cc1	Prostaglandin E2 receptor EP2 subtype (Homo sapiens)	0.66 nM (inactive)
COc1ccc(-c2cc(C(F)(F)F)n3nc(C(=O)N(C)Cc4ccccc4)cc3n2)cc1OC	Prostaglandin E2 receptor EP2 subtype (Homo sapiens)	0.42 nM (inactive)
CCSc1nnc(-c2ccc(Cl)cc2)c2ccccc12	Prostaglandin E2 receptor EP2 subtype (Homo sapiens)	2.31 nM (inactive)
O=c1cc(N2CCCCC2)c(-c2ccccc2)nn1Cc1c(Cl)cccc1Cl	Prostaglandin E2 receptor EP2 subtype (Homo sapiens)	1.07 nM (inactive)
CN(C)c1nc(N2CCOCC2)nc(N(c2ccccc2)c2ccccc2)n1	Prostaglandin E2 receptor EP2 subtype (Homo sapiens)	0.59 nM (inactive)
COc1ccc(C2=Nn3c(nnc3-c3ccccc3)SC2)cc1OC	Prostaglandin E2 receptor EP2 subtype (Homo sapiens)	0.88 nM (inactive)
CC1=C/C(=C(/c2ccc(O)c(C)c2)c2ccccc2C(=O)O)C=CC1=O	Prostaglandin E2 receptor EP2 subtype (Homo sapiens)	0.75 nM (inactive)

// moving on: another record for PGE2 EC50 with compound
Prompt: What value of PGE2 EC50 with compound has been reported for the following compound? C=CCOc1c(Br)cc(/C=N/n2c(CC)n[nH]c2=S)cc1Br
Response: 0.13 nM (inactive)

====

Consider the following compounds and their measured PGE2 EC50 with compound readings.
- Assayed target: Prostaglandin E2 receptor EP2 subtype (Homo sapiens) (UniProt P43116)
- Sequence (P43116 whole entry, looked up): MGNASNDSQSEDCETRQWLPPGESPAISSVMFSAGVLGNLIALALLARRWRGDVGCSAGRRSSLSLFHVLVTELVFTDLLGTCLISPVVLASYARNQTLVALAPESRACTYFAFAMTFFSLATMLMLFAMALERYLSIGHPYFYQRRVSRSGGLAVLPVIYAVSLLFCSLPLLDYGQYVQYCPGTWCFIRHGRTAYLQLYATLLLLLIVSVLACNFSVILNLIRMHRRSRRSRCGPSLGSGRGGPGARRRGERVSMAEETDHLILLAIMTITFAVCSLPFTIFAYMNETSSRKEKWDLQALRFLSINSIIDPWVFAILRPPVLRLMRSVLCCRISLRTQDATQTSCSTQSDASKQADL
- Assay: compounds shifting PGE2 potency at EP2 – cell-based, human EP2, PGE2 EC50 shift, dose response (AID 1421)
- Condition summary: EP2-expressing cells, PGE2 EC50 shift by compound; at 20 µM
Screen size: about 1,300 compounds; about 140 (11%) were called active. Only a sample is shown. Potency and affinity values are given separately.

Reference set, count: 3
Compound	Readout kind	Recorded value
CCCCOc1c(Br)cc(/C=N/O)cc1OCC	PGE2 EC50 with compound	0.48 nM (inactive)
COc1ccc(Oc2cc(C(F)(F)F)nc(N(C)C)n2)cc1	PGE2 EC50 with compound	0.6 nM (inactive)
CCSc1nc2c(c(=O)[nH]c(=O)n2C)n1Cc1ccc(Cl)cc1	PGE2 EC50 with compound	0.83 nM (inactive)

Prompt: Look up PGE2 EC50 with compound with Prostaglandin E2 receptor EP2 subtype (Homo sapiens) (UniProt P43116) for this compound: CCOC(=O)c1c(N)sc2c1CCC(CC)C2 (centres undefined)
Response: 0.46 nM (inactive)

Prompt: Form field - read-out: PGE2 EC50 with compound; system: Prostaglandin E2 receptor EP2 subtype (Homo sapiens) (UniProt P43116); submitted item: CCOC(=O)c1c(CC(C)C)csc1N
Response: 0.39 nM (inactive)
